- System: ATP;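 note: ATP exposure 15 min at 22 °C before imaging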
- Test: switch fluorescence ratio, 500 uM ATP over buffer (Cy3 cluster intensity, sum of 5 cycles each) (fold (ratio)); higher = stronger signal-on switching upon ATP binding; sequences stand for … in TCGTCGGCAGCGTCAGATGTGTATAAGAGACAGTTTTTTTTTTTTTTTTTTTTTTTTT…TC
- Settings: aptamer strand: ATP DNA aptamer (quencher-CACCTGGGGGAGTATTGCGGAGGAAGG + anchor), 100 nM annealed; ATP concentration: 500 uM
Endpoint: switch fluorescence ratio
# respond with the number and nothing more

>>> val("GACTACAGTG")
1.1

Q. Look up switch fluorescence ratio for this sequence: TCTTTTTGGC
A. 1.01

Q. Okay, and TTGATATCGG ?
A. 0.979

Q. Okay, and TTTATGGATT ?
A. 1.01

Q. Okay, and AATTGAAACA ?
A. 0.973

Q. Okay, and TGAAGGAGTG ?
A. 0.955

Q. Okay, and TCAAGCGGGG ?
A. 1.06

Q. Okay, and GGCGGGACCG ?
A. 0.959

Q. Okay, and TAGGCACAAC ?
A. 1.15

Q. Okay, and CACATTTTTG ?
A. 0.995

###

Measured switch fluorescence ratio by item
- System: ATP;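 note: ATP exposure 15 min at 22 °C before imaging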
- Test: switch fluorescence ratio, 500 uM ATP over buffer (Cy3 cluster intensity, sum of 5 cycles each) (fold (ratio)); higher = stronger signal-on switching upon ATP binding; sequences stand for … in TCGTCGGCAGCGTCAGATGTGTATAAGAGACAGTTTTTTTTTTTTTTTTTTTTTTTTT…TC
- Settings: aptamer strand: ATP DNA aptamer (quencher-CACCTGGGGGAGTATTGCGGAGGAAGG + anchor), 100 nM annealed; ATP concentration: 500 uM
# respond with the number and nothing more

Consider the worked cases shown below.
>>> val("GCGCTTGGAA")
1.02
>>> val("CTTGCATAAC")
3.51
>>> val("AGACTGTTGA")
1.04
>>> val("TTGGAGCACG")
1.03
>>> val("CTGTTTGGTA")
1
>>> val("CTTTTAGGA")
0.995
>>> val("GTTGTGGCGG")
0.97
>>> val("TTTTAGAATG")
1
>>> val("CTCTATTGGG")
0.993
>>> val("ACGATTGTGG")
0.983

Q. Look up switch fluorescence ratio for this sequence: GAAGTTATTG
A. 0.99

Q. Okay, and TTTAGTCGGG ?
A. 1.02

Q. Okay, and TTTTAGTCGG ?
A. 0.988

Q. Okay, and TTGCAGTGTT ?
A. 1.06

Q. Okay, and GCCTTAGCGG ?
A. 1.03

###

Measured switch fluorescence ratio by item
- System: ATP;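 note: ATP exposure 15 min at 22 °C before imaging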
- Test: switch fluorescence ratio, 500 uM ATP over buffer (Cy3 cluster intensity, sum of 5 cycles each) (fold (ratio)); higher = stronger signal-on switching upon ATP binding; sequences stand for … in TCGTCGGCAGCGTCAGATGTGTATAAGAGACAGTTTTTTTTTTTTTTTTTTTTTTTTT…TC
- Settings: aptamer strand: ATP DNA aptamer (quencher-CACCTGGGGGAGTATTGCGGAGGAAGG + anchor), 100 nM annealed; ATP concentration: 500 uM
# respond with the number and nothing more

Consider the worked cases shown below.
>>> val("GGTAGGGGGT")
1
>>> val("AGAGATACTT")
1.01
>>> val("TACCAGTCGC")
1.03
>>> val("TTCAATTTAG")
0.995
>>> val("CCGGGGTGTA")
1.32

Now look at this one.
Q. Look up switch fluorescence ratio for this sequence: CCAGTATGTT
A. 0.993

###

- Test system: ATP;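 note: ATP exposure 15 min at 22 °C before imaging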
- Test: switch fluorescence ratio, 500 uM ATP over buffer (Cy3 cluster intensity, sum of 5 cycles each) (fold (ratio)); higher = stronger signal-on switching upon ATP binding; sequences stand for … in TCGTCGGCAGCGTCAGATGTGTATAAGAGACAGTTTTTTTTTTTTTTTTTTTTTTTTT…TC
- Settings: aptamer strand: ATP DNA aptamer (quencher-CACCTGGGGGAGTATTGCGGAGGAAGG + anchor), 100 nM annealed; ATP concentration: 500 uM
Measured switch fluorescence ratio by item
# respond with the number and nothing more

Consider the worked cases shown below.
>>> val("AGGTACGGAG")
1.01
>>> val("CGTATTTTTA")
1
>>> val("GGTGGCTAGC")
1

Q. Look up switch fluorescence ratio for this sequence: ATAGGTTTTT
A. 0.973

Q. Okay, and GGCCAGGGGA ?
A. 1.04

Q. Okay, and GGACCAAACG ?
A. 1.05

Q. Okay, and GCCTAAGGGA ?
A. 1

Q. Okay, and TTTGTGCGCA ?
A. 1.07

Q. Okay, and TGGTCGTAGT ?
A. 0.994

Q. Okay, and TCCTGGCTGT ?
A. 1.09

Q. Okay, and CAAGGAGTCT ?
A. 1.02

Q. Okay, and GTCAGTGAAT ?
A. 0.988

Q. Okay, and ATGCGGAGTG ?
A. 0.987

Q. Okay, and TTTGACAGGG ?
A. 1.02

Q. Okay, and TTTATTTGGT ?
A. 1.03

Q. Okay, and TTGTTTATAT ?
A. 0.985

Q. Okay, and GAACGGAAGG ?
A. 1.01

Q. Okay, and ACAGTTCTAC ?
A. 1.03

Q. Okay, and TGGGTTAATC ?
A. 1.01

Q. Okay, and TTTATTATGA ?
A. 1.01

###

Measured switch fluorescence ratio by item
- Tested on: ATP;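 note: ATP exposure 15 min at 22 °C before imaging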
- Test: switch fluorescence ratio, 500 uM ATP over buffer (Cy3 cluster intensity, sum of 5 cycles each) (fold (ratio)); higher = stronger signal-on switching upon ATP binding; sequences stand for … in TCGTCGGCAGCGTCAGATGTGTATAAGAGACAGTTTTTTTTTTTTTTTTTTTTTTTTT…TC
- Settings: aptamer strand: ATP DNA aptamer (quencher-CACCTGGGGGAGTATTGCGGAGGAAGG + anchor), 100 nM annealed; ATP concentration: 500 uM
# respond with the number and nothing more

Consider the worked cases shown below.
>>> val("CGAACGGATT")
1.06
>>> val("TGGCGTGTTA")
1.02

Q. Look up switch fluorescence ratio for this sequence: AGTTATGTTT
A. 0.956

Q. Okay, and GAAAAATCGA ?
A. 0.988

###

- System: ATP;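 note: ATP exposure 15 min at 22 °C before imaging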
- Test: switch fluorescence ratio, 500 uM ATP over buffer (Cy3 cluster intensity, sum of 5 cycles each) (fold (ratio)); higher = stronger signal-on switching upon ATP binding; sequences stand for … in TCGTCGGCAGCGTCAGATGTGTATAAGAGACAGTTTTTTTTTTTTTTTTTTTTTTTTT…TC
- Settings: aptamer strand: ATP DNA aptamer (quencher-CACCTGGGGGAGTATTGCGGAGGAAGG + anchor), 100 nM annealed; ATP concentration: 500 uM
Endpoint: switch fluorescence ratio
# respond with the number and nothing more

Consider the worked cases shown below.
>>> val("CAGTATATTG")
0.995
>>> val("TAACACATTT")
0.98
>>> val("TCGTTGAGCA")
0.994

Q. Look up switch fluorescence ratio for this sequence: AAATTCGTTA
A. 0.983

Q. Okay, and GGGGTTGGCC ?
A. 0.986

Q. Okay, and CTGTAAGGGG ?
A. 0.977

Q. Okay, and AGGGTTTCTC ?
A. 0.989

Q. Okay, and AATGCACTCG ?
A. 1.04

Q. Okay, and GCAGGGAGCG ?
A. 0.978

Q. Okay, and GACATTCACC ?
A. 1.1

###

Measured switch fluorescence ratio by item
- Tested on: ATP;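 note: ATP exposure 15 min at 22 °C before imaging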
- Test: switch fluorescence ratio, 500 uM ATP over buffer (Cy3 cluster intensity, sum of 5 cycles each) (fold (ratio)); higher = stronger signal-on switching upon ATP binding; sequences stand for … in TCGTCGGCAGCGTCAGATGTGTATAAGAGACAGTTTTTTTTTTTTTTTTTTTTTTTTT…TC
- Settings: aptamer strand: ATP DNA aptamer (quencher-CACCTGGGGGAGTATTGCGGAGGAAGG + anchor), 100 nM annealed; ATP concentration: 500 uM
# respond with the number and nothing more

Consider the worked cases shown below.
>>> val("GTTGAAACGT")
1.06
>>> val("TCGGGTAAAG")
0.995
>>> val("TTGTTGGGCA")
1.01
>>> val("GCTTTTGTAC")
1.05
>>> val("ATTGCATGCA")
0.985
>>> val("GGATCGGGGC")
0.994
>>> val("CTCAGGGCGT")
0.975
>>> val("CGGAGGCAGG")
1.21
>>> val("GGATGTCGCG")
1.01

Now look at this one.
Q. Form field: switch fluorescence ratio recorded for AGATGAGGCG with ATP (enter value)
A. 1

###

- Tested on: ATP;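 note: ATP exposure 15 min at 22 °C before imaging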
- Test: switch fluorescence ratio, 500 uM ATP over buffer (Cy3 cluster intensity, sum of 5 cycles each) (fold (ratio)); higher = stronger signal-on switching upon ATP binding; sequences stand for … in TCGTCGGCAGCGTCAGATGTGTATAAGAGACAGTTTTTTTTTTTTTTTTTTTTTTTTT…TC
- Settings: aptamer strand: ATP DNA aptamer (quencher-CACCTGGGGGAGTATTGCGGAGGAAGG + anchor), 100 nM annealed; ATP concentration: 500 uM
Measured switch fluorescence ratio by item

Consider the worked cases shown below.
>>> val("GGCGGGGGGG")
1.03
>>> val("GGGTGGGATA")
1.02
>>> val("TTTGGTGTTT")
1.01
>>> val("AACCGTTTTG")
0.979
>>> val("GGTCGTTGCT")
0.946

Q. Look up switch fluorescence ratio for this sequence: GTGGGATATA
A. 0.995

Q. Okay, and GACGGGTTAG ?
A. 1.02

Q. Okay, and GTAAATTTTT ?
A. 1.01
